Target: Eukaryotic translation initiation factor 4E (Mus musculus, UniProt P63073)
Sequence (P63073 whole entry): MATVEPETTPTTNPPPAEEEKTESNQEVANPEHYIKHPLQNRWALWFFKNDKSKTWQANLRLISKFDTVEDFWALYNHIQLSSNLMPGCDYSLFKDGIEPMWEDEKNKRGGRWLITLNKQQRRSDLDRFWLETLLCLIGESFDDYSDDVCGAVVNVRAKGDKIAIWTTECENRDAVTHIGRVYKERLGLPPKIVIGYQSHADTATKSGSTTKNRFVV
Experiment: blockers of eIF4G binding by eIF4E – biochemical, TR-FRET, dose response (AID 855);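 also: potency for disrupting eIF4E binding to eIF4GI seen as loss of FRET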
Format: functional
Activity calls are given as the source filed them. No rule for the calls is given here.
Catalogue of compounds with associated IC50
Quantity: IC50

Compound | Target Under Test | Endpoint Value
CC(C)(C)NC(=O)C(=O)NN=C1CCCCCCC1 | Eukaryotic translation initiation factor 4E (Mus musculus, UniProt P63073) | 50 µM (inactive)
Clc1nss/c1=N\c1ccccc1 | Eukaryotic translation initiation factor 4E (Mus musculus, UniProt P63073) | 50 µM (inactive)
CCn1cc(C(=O)OCC(=O)c2cc(C)n(-c3ccc(OC(F)F)cc3)c2C)c(=O)c2ccc(C)nc21 | Eukaryotic translation initiation factor 4E (Mus musculus, UniProt P63073) | > 64 µM (inactive)
COc1cc(/C=C2\SC(=O)N(c3ccc(Cl)cc3)C2=O)cc([N+](=O)[O-])c1O | Eukaryotic translation initiation factor 4E (Mus musculus, UniProt P63073) | 50 µM (inactive)
CCOC(=O)c1cnn(C(=O)c2ccccc2)c1N | Eukaryotic translation initiation factor 4E (Mus musculus, UniProt P63073) | > 64 µM (inactive)
CO/N=C/C(C#N)c1ncc(C(F)(F)F)cc1Cl (configuration not stated) | Eukaryotic translation initiation factor 4E (Mus musculus, UniProt P63073) | > 64 µM (inactive)
CCc1ccc(C(=O)CSc2nnc[nH]2)cc1 | Eukaryotic translation initiation factor 4E (Mus musculus, UniProt P63073) | > 64 µM (inactive)

src = ChEMBL document CHEMBL1201862
